biological target: Active Human ERK2 (hERK2) (Homo sapiens (Human), UniProt P28482); assay: Active Human ERK2 (hERK2) Activity Assay (IMAP-FP); assay type: biochemical; conditions: phosphorylated active hERK2, 30 μM ATP; average; read-out: ERK 2 Human average IC50
Sequence (P28482 whole entry): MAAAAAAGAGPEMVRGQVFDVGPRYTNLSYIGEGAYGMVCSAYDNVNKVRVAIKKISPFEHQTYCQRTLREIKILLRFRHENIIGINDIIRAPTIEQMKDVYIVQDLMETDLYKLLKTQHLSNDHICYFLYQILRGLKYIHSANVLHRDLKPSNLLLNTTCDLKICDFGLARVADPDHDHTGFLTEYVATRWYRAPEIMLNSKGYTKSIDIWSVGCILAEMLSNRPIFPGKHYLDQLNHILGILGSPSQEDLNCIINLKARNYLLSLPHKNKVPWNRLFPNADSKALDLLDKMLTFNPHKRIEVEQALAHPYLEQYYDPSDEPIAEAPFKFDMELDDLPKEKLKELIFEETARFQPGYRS
pIC50: −log10 of the molar value.
Cut-off 9 on pIC50, inclusive. At or above means Yes; below means No.

Sample answers from the record:
{"molecule": "Cc1cc(-c2n[nH]c3cc(NC(=O)NCC4CNC(=O)O4)ncc23)ccn1 (centres unmarked)", "categoryLabel": "No"}
{"molecule": "CC(CNC(=O)Nc1cc2[nH]nc(-c3ccc(F)cc3)c2cn1)N(C)C (centres unmarked)", "categoryLabel": "No"}
{"molecule": "Cc1cc(-c2n[nH]c3cc(NC(=O)Nc4noc5cnccc45)ncc23)ccn1", "categoryLabel": "Yes"}
{"molecule": "Cc1cc(-c2n[nH]c3cc(NC(=O)NCc4nc(C)cs4)ncc23)ccn1", "categoryLabel": "No"}
{"molecule": "C[C@@H](NC(=O)Nc1cc2[nH]nc(C3CCCC3)c2cn1)c1ccccc1", "categoryLabel": "No"}
{"molecule": "Cc1cc(-c2n[nH]c3cc(NC(=O)NC4CCCC(Oc5cccc(F)c5)C4)ncc23)ccn1 (centres unmarked) [Example 657]", "categoryLabel": "No"}
{"molecule": "Cc1cc(-c2n[nH]c3cc(NC(=O)N[C@@H]4CN(C)C[C@H]4C)ncc23)ccn1", "categoryLabel": "No"}
{"molecule": "C/C=C/c1n[nH]c2cc(NC(=O)N[C@H](C)c3ccccc3)ncc12", "categoryLabel": "Yes"}

Query: Test whether the molecule Cc1cc(-c2n[nH]c3cc(NC(=O)NC4(c5ccc(F)cc5)CC4)ncc23)ccn1 records pIC50 of 9 or higher.
Result: No

----------
molecular target: Active Mouse ERK2 (mERK2) (Mus musculus (Mouse)); assay: Active Mouse ERK2 (mERK2) Activity Assay (IMAP-FP); format: biochemical; details: phosphorylated active mERK2, 30 uM ATP; read-out: ERK 2 MAPK1 Mouse IC50
Sequence (P63085 whole entry): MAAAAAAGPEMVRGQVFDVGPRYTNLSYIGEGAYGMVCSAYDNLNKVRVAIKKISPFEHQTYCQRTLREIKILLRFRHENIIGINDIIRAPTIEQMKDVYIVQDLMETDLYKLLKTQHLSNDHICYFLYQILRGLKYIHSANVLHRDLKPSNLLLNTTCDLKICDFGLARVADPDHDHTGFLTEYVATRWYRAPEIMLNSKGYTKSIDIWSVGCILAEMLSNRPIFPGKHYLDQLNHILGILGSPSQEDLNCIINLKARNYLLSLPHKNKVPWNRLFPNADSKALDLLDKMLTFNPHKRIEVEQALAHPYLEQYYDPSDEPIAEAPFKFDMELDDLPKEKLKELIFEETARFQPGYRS
measuredParameter: IC50 (pM)
One number for each entry, in pM.

Solved entries (count: 4):
{"molecule": "Cc1cc(-c2n[nH]c3cc(NC(=O)NC(CO)c4ccccc4)ncc23)ccn1 (centres unmarked) [Example 10]", "unitText": "pM", "reportedResult": 215}
{"molecule": "Cc1cc(-c2n[nH]c3cc(NC(N)=O)ncc23)ccn1 [Example 23]", "unitText": "pM", "reportedResult": 2220}
{"molecule": "Cc1cc(-c2n[nH]c3cc(NC(=O)NCc4ccc(Cl)c(Cl)c4)ncc23)ccn1 [Example 8]", "unitText": "pM", "reportedResult": 516}
{"molecule": "Cc1cc(-c2n[nH]c3cc(NC(=O)NCc4nnc(C)o4)ncc23)ccn1 [Example 13]", "unitText": "pM", "reportedResult": 10200}

Query: IC50 for Cc1cc(-c2n[nH]c3cc(NC(=O)NCCc4ccccc4)ncc23)ccn1 [Example 5] ?
Result: 502

----------
For each of the molecules below, state its pIC50.
Target: Active Human ERK2 (hERK2) (Homo sapiens (Human), UniProt P28482)
Assay: Active Human ERK2 (hERK2) Activity Assay (IMAP-FP)
Type: biochemical
Settings: phosphorylated active hERK2, 30 μM ATP; average; read-out: ERK 2 Human average IC50
Description: Assays Active Human ERK2 (hERK2) Activity Assay: Activated ERK2 activity was determined in an IMAP-FP assay (Molecular Devices). […] The final reaction in each well of 25 μL consists of 0.5 nM hERK2, 900 nM unlabeled peptide, 80 nM labeled-peptide, and 30 μM ATP. […] Plates were read on EnVision reader after 60 minutes binding equilibration using Fluorescence Polarization protocol (Perkin Elmer).
Numbers only, as −log10 of the molar value.

{"molecule": "COC[C@@H](NC(=O)Nc1cc2[nH]nc(-c3ccc4nnn(C)c4c3)c2cn1)c1ccccc1", "pIC50": 9.66}

Each of the following entries comes with a recorded value; kindly state pIC50 for each.
1. Cc1cc(-c2n[nH]c3cc(NC(=O)NCc4ncccc4C)ncc23)ccn1
2. Cc1cc(-c2n[nH]c3cc(NC(=O)NC4CCCC(Oc5cccc(F)c5)C4)ncc23)ccn1 (centres unmarked) [Example 648]
3. Cc1cc(-c2n[nH]c3cc(NC(=O)NCC(=O)O)ncc23)ccn1
4. C[C@@H](NC(=O)Nc1cc2[nH]nc(-c3cnn(C4COC4)c3)c2cn1)c1ccccc1
5. Cc1cc(-c2n[nH]c3cc(NC(=O)NCCc4nc5ccccc5[nH]4)ncc23)ccn1

Result:
8.91
7.55
6.45
9.33
9.32

Dear reader, for each entry below, please note its pIC50.
1. Cc1cc(-c2n[nH]c3cc(NC(=O)NC4CCCC(Oc5ccc(Cl)c(F)c5)C4)ncc23)ccn1 (centres unmarked)
2. COC(=O)C1CC1c1n[nH]c2cc(NC(=O)N[C@H](C)c3ccccc3)ncc12 (some centres unmarked) [Example 642]

Result:
1. 6.43
2. 6.49

----------
biological target: Active Human ERK2 (hERK2) (Homo sapiens (Human)); test: Active Human ERK2 (hERK2) Activity Assay (IMAP-FP); type: biochemical; settings: phosphorylated active hERK2, 30 μM ATP; average; read-out: ERK 2 Human average IC50
measuredParameter: pIC50
Answers are plain numbers, as −log10 of the molar value.

{"molecule": "Cc1cc(-c2n[nH]c3cc(NC(=O)NCc4c(F)cccc4Cl)ncc23)ccn1", "measuredOn": "Active Human ERK2 (hERK2) (Homo sapiens (Human))", "pIC50": 9.33}

Provide each entry's pIC50 from the list below.
1. COCCn1cc(-c2n[nH]c3cc(NC(=O)N[C@H](C)c4ccccc4)ncc23)cn1
2. COC[C@@H](NC(=O)Nc1cc2[nH]nc(-c3ccnc(N4CCNCC4)c3)c2cn1)c1ccc(F)cc1
3. COC[C@@H](NC(=O)Nc1cc2[nH]nc(-c3ccc(-n4ccnn4)cc3)c2cn1)c1ccc(F)cc1
4. O=C(NCc1ccccc1)Nc1cc2[nH]nc(C3CC3)c2cn1
5. COc1cc(-c2n[nH]c3cc(NC(=O)N[C@H](C)c4ccc(F)cc4)ncc23)ccn1
6. COC[C@@H](NC(=O)Nc1cc2[nH]nc(-c3ccc(C(F)(F)F)nc3)c2cn1)c1ccc(F)cc1
7. Cc1cc(-c2n[nH]c3cc(NC(=O)NC(CS(C)(=O)=O)c4ccccc4)ncc23)ccn1 (stereo not shown)
8. O=C(Nc1cc2[nH]nc(-c3ccc(F)cc3)c2cn1)NC1CCOC1 (stereo not shown) [Example 612]

Result:
[7.55, 9.09, 8.76, 7.76, 8.19, 7.61, 9.50, 7.90]

----------
molecular target: Active Human ERK2 (hERK2) (Homo sapiens (Human)); experiment: Active Human ERK2 (hERK2) Activity Assay (IMAP-FP); assay type: biochemical; details: phosphorylated active hERK2, 30 μM ATP; average; read-out: ERK 2 Human average IC50
Record form. Attribute: log10(IC50). Fill in for each entry.
// stored as log10 of IC50 expressed in nM

Consider the following illustrative entries.
{"compound": "Cc1cc(-c2n[nH]c3cc(NC(=O)NCc4cccc(F)c4)ncc23)ccn1 [Example 53]", "log10(IC50)": -0.61}
{"compound": "Cc1cc(-c2n[nH]c3cc(NC(=O)NCc4ccc(Cl)cc4)ncc23)ccn1 [Example 26]", "log10(IC50)": -0.29}
{"compound": "Cc1cc(-c2n[nH]c3cc(NC(=O)N[C@@H]4CN(C)C[C@H]4c4ccccc4F)ncc23)ccn1 [Example 184]", "log10(IC50)": -0.77}
{"compound": "C[C@@H](NC(=O)Nc1cc2[nH]nc(C(C)(F)F)c2cn1)c1ccc(F)cc1 [Example 665]", "log10(IC50)": 2.29}
{"compound": "CC1=NOC(CNC(=O)Nc2cc3[nH]nc(-c4ccnc(C)c4)c3cn2)C1 (centres unmarked) [Example 191]", "log10(IC50)": 1.25}
{"compound": "Cc1cc(-c2n[nH]c3cc(NC(=O)N[C@H]4CN(C)[C@@H](C(F)F)[C@@H]4c4ccccc4)ncc23)ccn1 [Example 567]", "log10(IC50)": -0.36}
{"compound": "C[C@@H](NC(=O)Nc1cc2[nH]nc(C(F)F)c2cn1)c1ccc(F)cc1 [Example 669]", "log10(IC50)": 1.33}

Now let's try a different one.
Query: Entry under review: Cc1cc(-c2n[nH]c3cc(NC(=O)N[C@@H](C)c4ccc(Cl)c(C)c4)ncc23)ccn1 [Example 340] . Reported log10(IC50)?
Result: 2.86

----------
target: UniProt P28482; assay: Active Human ERK2 (hERK2) Activity Assay (IMAP-FP); assay type: biochemical; conditions: phosphorylated active hERK2, 30 μM ATP; average; read-out: ERK 2 Human average IC50
measuredParameter: pIC50
Answers are plain numbers, as −log10 of the molar value.

{"compound": "Cc1cc(-c2n[nH]c3cc(NC(=O)N[C@H]4CN(C)C[C@@H]4C4CCCCC4)ncc23)ccn1 [Example 208]", "pIC50": 8.17}

Dear colleague, could you please provide pIC50 for the compounds listed below?
1. CN1CC[C@H](CNC(=O)Nc2cc3[nH]nc(-c4ccc(F)cc4)c3cn2)C1 [Example 322]
2. CCOCCNC(=O)Nc1cc2[nH]nc(-c3ccnc(C)c3)c2cn1 [Example 617]
3. Cc1cc(-c2n[nH]c3cc(NC(=O)NC4(c5ccccn5)CC4)ncc23)ccn1 [Example 351]
4. Cc1cc(-c2n[nH]c3cc(NC(=O)N[C@H](COCC(F)F)c4ccccc4)ncc23)no1 [Example 701]
5. COc1cccc(F)c1CN1CCC[C@@H](NC(=O)Nc2cc3[nH]nc(-c4ccnc(C)c4)c3cn2)C1 [Example 2]

Result:
[8.93, 8.97, 7.04, 8.34, 9.54]
